Biological target: T1, human C-MET His tagged, monomeric (human, UniProt P08581 25-932)
T1 construct: also called monomeric human C-MET; biotinylated human C-MET-His
T1 sequence (P08581 25-932): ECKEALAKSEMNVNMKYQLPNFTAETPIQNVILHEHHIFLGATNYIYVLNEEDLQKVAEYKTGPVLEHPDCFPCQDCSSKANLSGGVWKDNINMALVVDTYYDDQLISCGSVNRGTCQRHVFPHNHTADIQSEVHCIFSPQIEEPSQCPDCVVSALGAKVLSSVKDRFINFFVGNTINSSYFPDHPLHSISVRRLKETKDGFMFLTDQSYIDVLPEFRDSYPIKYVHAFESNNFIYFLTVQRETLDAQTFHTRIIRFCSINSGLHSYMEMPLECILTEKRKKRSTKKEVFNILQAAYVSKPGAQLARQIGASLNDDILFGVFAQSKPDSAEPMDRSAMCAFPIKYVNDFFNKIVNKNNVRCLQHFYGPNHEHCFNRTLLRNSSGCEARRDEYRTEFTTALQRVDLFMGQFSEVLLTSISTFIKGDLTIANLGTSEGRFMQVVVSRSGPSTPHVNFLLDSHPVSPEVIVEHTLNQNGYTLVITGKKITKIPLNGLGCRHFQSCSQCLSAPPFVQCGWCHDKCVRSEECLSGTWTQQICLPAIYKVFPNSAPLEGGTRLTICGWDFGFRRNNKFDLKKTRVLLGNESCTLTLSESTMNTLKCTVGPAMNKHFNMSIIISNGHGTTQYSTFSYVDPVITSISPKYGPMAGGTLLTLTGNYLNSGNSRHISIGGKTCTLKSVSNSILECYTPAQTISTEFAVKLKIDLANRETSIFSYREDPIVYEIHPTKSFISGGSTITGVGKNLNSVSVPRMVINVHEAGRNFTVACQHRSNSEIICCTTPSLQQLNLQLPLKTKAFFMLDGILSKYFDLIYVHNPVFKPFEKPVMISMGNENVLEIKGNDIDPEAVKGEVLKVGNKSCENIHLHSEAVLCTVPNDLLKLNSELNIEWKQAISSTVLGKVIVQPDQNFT
Assay: SPR Biacore, IgG captured, monomeric C-MET-His analyte
MEASURED QUANTITY: koff (s⁻¹)
Report as a plain number; the unit s⁻¹ is understood.

Solved cases below.
BINDER: MH7 (antibody, human IgG4, V domains shown) VH: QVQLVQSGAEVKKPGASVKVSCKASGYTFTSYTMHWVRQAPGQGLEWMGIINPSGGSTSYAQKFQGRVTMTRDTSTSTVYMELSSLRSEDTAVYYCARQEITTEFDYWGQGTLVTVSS VL: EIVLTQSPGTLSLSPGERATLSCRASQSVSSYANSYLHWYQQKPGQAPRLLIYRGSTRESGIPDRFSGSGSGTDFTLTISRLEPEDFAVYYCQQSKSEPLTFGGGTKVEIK
RECORDED RESULT: 2.9e-05
//
BINDER: MH5 (antibody, IgG4, V domains shown) VH: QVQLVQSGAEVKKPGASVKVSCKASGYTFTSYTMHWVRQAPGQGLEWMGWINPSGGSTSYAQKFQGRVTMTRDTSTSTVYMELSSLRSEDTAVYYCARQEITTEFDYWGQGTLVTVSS VL: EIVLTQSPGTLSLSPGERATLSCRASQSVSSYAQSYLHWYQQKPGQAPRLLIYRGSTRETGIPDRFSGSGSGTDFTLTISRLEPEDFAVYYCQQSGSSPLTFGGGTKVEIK
RECORDED RESULT: 0.00015
//
BINDER: MH2 (antibody, IgG4, V domains shown) VH: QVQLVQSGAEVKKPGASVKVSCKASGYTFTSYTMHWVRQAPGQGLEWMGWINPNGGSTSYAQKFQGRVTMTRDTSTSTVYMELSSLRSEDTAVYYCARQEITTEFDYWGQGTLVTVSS VL: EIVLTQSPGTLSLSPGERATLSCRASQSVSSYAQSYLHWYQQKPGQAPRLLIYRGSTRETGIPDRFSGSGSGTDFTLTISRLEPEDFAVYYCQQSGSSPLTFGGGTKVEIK
RECORDED RESULT: 0.00018
//
BINDER: MH3 (antibody, IgG4, V domains shown, also called MH03) VH: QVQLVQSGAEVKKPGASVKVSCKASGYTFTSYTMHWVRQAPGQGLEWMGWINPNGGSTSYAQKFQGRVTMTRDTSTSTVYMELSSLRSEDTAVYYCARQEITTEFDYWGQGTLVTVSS VL: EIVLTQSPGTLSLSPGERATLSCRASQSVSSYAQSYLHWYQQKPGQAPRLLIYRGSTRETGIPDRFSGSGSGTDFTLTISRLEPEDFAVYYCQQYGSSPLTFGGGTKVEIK
RECORDED RESULT: 0.00051
//
BINDER: 09B08 (antibody, IgG4, V domains shown) VH: QVQLVQSGAEVKKPGASVKVSCKASGYTFTSYTMHWVRQAPGQGLEWMGWINPNNGSTNYAQKFQGRVTMTRDTSTSTVYMELSSLRSEDTAVYYCARSEITTDFDYWGQGTLVTVSS VL: EIVLTQSPGTLSLSPGERATLSCRASQSVSSYANSYLHWYQQKPGQAPRLLIYRGSTRESGIPDRFSGSGSGTDFTLTISRLEPEDFAVYYCQQSKSDPLTFGGGTKVEIK
RECORDED RESULT: 4.1e-05
//
BINDER: MH7-2 (antibody, human IgG4, V domains shown) VH: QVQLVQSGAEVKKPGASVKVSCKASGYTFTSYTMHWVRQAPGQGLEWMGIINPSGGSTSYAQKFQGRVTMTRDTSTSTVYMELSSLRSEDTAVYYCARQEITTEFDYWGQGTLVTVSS VL: EIVLTQSPGTLSLSPGERATLSCRASQSVSSYANSYLHWYQQKPGQAPRLLIYRGSTRETGIPDRFSGSGSGTDFTLTISRLEPEDFAVYYCQQSKESPLTFGGGTKVEIK
RECORDED RESULT: 0.000198

Proceed to the following item.
Query: For Grafted clone (Graft), IGHV1-46/IGKV3-20 CDR graft of 224G11 (antibody, human IgG4, V domains shown, also called VH graft/VL graft) VH: QVQLVQSGAEVKKPGASVKVSCKASGYIFTAYTMHWVRQAPGQGLEWMGWIKPNNGLANYAQKFQGRVTMTRDTSTSTVYMELSSLRSEDTAVYYCARSEITTEFDYWGQGTLVTVSS VL: EIVLTQSPGTLSLSPGERATLSCRASQSVDSYANSFLHWYQQKPGQAPRLLIYRASTRESGIPDRFSGSGSGTDFTLTISRLEPEDFAVYYCQQSKEDPLTFGGGTKVEIK , what is its reported koff?
Response: 3.7e-05

The reported measurements were obtained from patent US20260042850A1.
